target_desc: Mu-type opioid receptor (Homo sapiens) (UniProt P35372)
Sequence (P35372 whole entry): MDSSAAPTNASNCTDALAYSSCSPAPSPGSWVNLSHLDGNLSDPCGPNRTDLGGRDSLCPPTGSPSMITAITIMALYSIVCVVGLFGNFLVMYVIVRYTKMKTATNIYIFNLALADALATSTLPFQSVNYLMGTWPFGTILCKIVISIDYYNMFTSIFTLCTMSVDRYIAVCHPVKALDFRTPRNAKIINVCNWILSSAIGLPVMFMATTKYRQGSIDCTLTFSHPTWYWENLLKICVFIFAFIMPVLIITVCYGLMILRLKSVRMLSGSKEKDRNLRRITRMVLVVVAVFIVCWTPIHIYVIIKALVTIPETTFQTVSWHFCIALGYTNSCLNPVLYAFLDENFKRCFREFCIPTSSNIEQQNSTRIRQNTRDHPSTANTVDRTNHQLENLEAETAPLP
assay_summary: Ratio of potencies of (+) and (-) enantiomers against Mu receptors in monkeys
conditions: Cercopithecidae; target entry is the homologue from another species
Please go through the items and note down their Ratio.
Number only, please.

// query Ratio value for entry CCCCCCCCCCN1CC[C@]2(C)c3cc(O)ccc3CC1[C@@H]2C
0.8

// query Ratio value for entry CCCCCCCCCN1CC[C@]2(C)c3cc(O)ccc3CC1[C@@H]2C
0.7

// query Ratio value for entry CCCCCCCCN1CC[C@]2(C)c3cc(O)ccc3CC1[C@@H]2C
2.7

// query Ratio value for entry C[C@H]1C2Cc3ccc(O)cc3[C@@]1(C)CCN2C
328

// query Ratio value for entry CCCCCCN1CC[C@]2(C)c3cc(O)ccc3CC1[C@@H]2C
8.2

// query Ratio value for entry CCCN1CC[C@]2(C)c3cc(O)ccc3CC1[C@@H]2C
629

// query Ratio value for entry CCCCCCCN1CC[C@]2(C)c3cc(O)ccc3CC1[C@@H]2C
9.6

// query Ratio value for entry CCCCN1CC[C@]2(C)c3cc(O)ccc3CC1[C@@H]2C
365
